These data points were gathered from paper PMC6684654.

test system: NDM-1 K. pneumoniae XJ155017; test: Antibiotic susceptibility (MIC), automated identification system; assay type: cell-based; conditions: Klebsiella pneumoniae; Supplementary Table 2
PROPERTY_MEASURED: MIC

> print(dat)
                                   compound      result
1  O=C(N[C@H](CO)[C@H](O)c1ccc([N+](=O)[O-])cc1)C(Cl)Cl  > 16 µg/mL
2  CNC(C)C1CCC(N)C(OC2C(N)CC(N)C(OC3OCC(C)(O)C(NC)C3O)C2O)O1 (stereo not drawn)   ≤ 2 µg/mL
3  Cc1nnc(SCC2=C(C(=O)O)N3C(=O)[C@@H](NC(=O)Cn4cnnn4)[C@H]3SC2)s1  > 16 µg/mL

###

test system: NDM-1 E. coli XJ141015; assay: Antibiotic susceptibility (MIC), automated identification system; assay type: cell-based; details: Escherichia coli; Supplementary Table 1
PROPERTY_MEASURED: MIC

> print(dat)
                                   compound      result
1  CC(C)(O/N=C(\C(=O)N[C@@H]1C(=O)N2C(C(=O)[O-])=C(C[n+]3ccccc3)CS[C@H]12)c1csc(N)n1)C(=O)O  > 16 µg/mL
2  O=C(N[C@H](CO)[C@H](O)c1ccc([N+](=O)[O-])cc1)C(Cl)Cl  > 16 µg/mL
3  CN(C)[C@@H]1C(O)=C(C(N)=O)C(=O)[C@@]2(O)C(O)=C3C(=O)c4c(O)cccc4[C@@](C)(O)[C@H]3C[C@@H]12   ≤ 2 µg/mL

###

test system: NDM-1 K. pneumoniae XJ155017; experiment: Antibiotic susceptibility (MIC), automated identification system; assay type: cell-based; conditions: Klebsiella pneumoniae; Supplementary Table 2
Attribute: MIC
PROPERTY_MEASURED: MIC

> print(dat)
                                   molecule              target.or.system  property.measured      result
1  C[C@H]1[C@H](NC(=O)/C(=N\OC(C)(C)C(=O)O)c2csc(N)n2)C(=O)N1S(=O)(=O)O [Aztreonam]  NDM-1 K. pneumoniae XJ155017                MIC  > 16 µg/mL
2  CN(C)[C@@H]1C(O)=C(C(N)=O)C(=O)[C@@]2(O)C(O)=C3C(=O)c4c(O)cccc4[C@@](C)(O)[C@H]3C[C@@H]12 [Tetracycline]  NDM-1 K. pneumoniae XJ155017                MIC     4 µg/mL
3  CCN1CCN(C(=O)N[C@@H](C(=O)N[C@@H]2C(=O)N3[C@@H]2SC(C)(C)[C@@H]3C(=O)O)c2ccccc2)C(=O)C1=O [Piperacillin]  NDM-1 K. pneumoniae XJ155017                MIC  > 64 µg/mL
4  CC1(C)S[C@@H]2[C@H](NC(=O)[C@H](N)c3ccccc3)C(=O)N2[C@H]1C(=O)O [Ampicillin]  NDM-1 K. pneumoniae XJ155017                MIC  > 16 µg/mL
5  CO/N=C(\C(=O)N[C@@H]1C(=O)N2C(C(=O)O)=C(COC(C)=O)CS[C@H]12)c1csc(N)n1 [Cefotaxime]  NDM-1 K. pneumoniae XJ155017                MIC  > 32 µg/mL
6  CO/N=C(\C(=O)N[C@@H]1C(=O)N2C(C(=O)[O-])=C(C[N+]3(C)CCCC3)CS[C@H]12)c1csc(N)n1 [Cefepime]  NDM-1 K. pneumoniae XJ155017                MIC  > 16 µg/mL
7  COc1c(N2C[C@@H]3CCCN[C@@H]3C2)c(F)cc2c(=O)c(C(=O)O)cn(C3CC3)c12 [Moxifloxacin]  NDM-1 K. pneumoniae XJ155017                MIC   > 4 µg/mL
